Data origin: ChEMBL document CHEMBL1125902

Kindly supply the reported EC50 values for the records listed here.
Assayed Target: Adenosine receptor A1 (Cavia porcellus)
Sequence (P47745 whole entry): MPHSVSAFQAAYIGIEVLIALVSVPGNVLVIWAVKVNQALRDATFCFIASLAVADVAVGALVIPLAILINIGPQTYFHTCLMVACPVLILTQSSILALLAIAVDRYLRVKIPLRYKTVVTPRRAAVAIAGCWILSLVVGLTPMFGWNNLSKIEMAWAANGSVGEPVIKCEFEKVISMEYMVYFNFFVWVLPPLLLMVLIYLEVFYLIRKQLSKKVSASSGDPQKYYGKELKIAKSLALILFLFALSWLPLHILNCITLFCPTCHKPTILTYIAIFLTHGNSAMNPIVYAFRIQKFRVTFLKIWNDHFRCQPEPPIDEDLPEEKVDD
Test Protocol: Effective concentration required for prolongation of the stimulus-QRS interval by 50% of the maximum response at the Adenosine A1 receptor in langendorff guinea pig heart preparation
Assay type: functional
Your answer should be a plain number; it is taken to be in µM.

Need EC50 of Nc1nc(OCCc2cccs2)nc2c1ncn2C1O[C@@H](CO)[C@H](O)[C@@H]1O (some centres undefined) , thanks.
11.7

Need EC50 of Cc1cccc(CCOc2nc(N)c3ncn(C4O[C@@H](CO)[C@H](O)[C@@H]4O)c3n2)c1 (some centres undefined) , thanks.
12.9

Which measured EC50 value corresponds to COc1cccc(CCOc2nc(N)c3ncn(C4O[C@@H](CO)[C@H](O)[C@@H]4O)c3n2)c1 (some centres undefined) ?
16.2

Name the reported EC50 value associated with the molecule Nc1nc(OCc2ccccc2)nc2c1ncn2C1O[C@@H](CO)[C@H](O)[C@@H]1O (some centres undefined)
6.31

I would be grateful if you could share the reported EC50 for Nc1nc(OCCc2cccc(Cl)c2)nc2c1ncn2C1O[C@@H](CO)[C@H](O)[C@@H]1O (some centres undefined) .
16.2

What EC50 value was documented for this molecule, Nc1nc(OCCc2ccc3ccccc3c2)nc2c1ncn2C1O[C@@H](CO)[C@H](O)[C@@H]1O (some centres undefined) ?
11.5

Requested read-out: EC50. Entry: Nc1nc(OCCc2ccsc2)nc2c1ncn2C1O[C@@H](CO)[C@H](O)[C@@H]1O (some centres undefined)
18.6

Request the reported EC50 associated with COc1ccc(CCOc2nc(N)c3ncn(C4O[C@@H](CO)[C@H](O)[C@@H]4O)c3n2)cc1OC (some centres undefined)
42.7

EC50 lookup needed for Cc1ccc(CCOc2nc(N)c3ncn(C4O[C@@H](CO)[C@H](O)[C@@H]4O)c3n2)cc1 (some centres undefined) , thanks.
7.41
